Read-out: Macrophage colony-stimulating factor (MCSF), CSF1 (gene 1435)
Experiment: BSK_CASM3C_MCSF: BioMAP Diversity Plus: CASM3C Assay for Macrophage colony-stimulating factor (MCSF) Biomarker Activity (AID 2283044);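 further: M-CSF protein amount quantified by ELISA after 24 h exposure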
Details: primary human coronary artery smooth muscle cells; actives raise or lower the signal
Activity calls are given as the source filed them. How the source made its calls: active means hit-call score of the fitted dose curve at least 0.9, where 1 is the maximum; inactive means score below 0.9.
One label from this list, please: 1.0 = active, 0.0 = inactive

Some solved cases for reference:
input: Short answer needed: outcome of this test for CCCCC(CC)COC(=O)c1ccccc1O (stereo unspecified) ?
output: 0.0

input: Entry C#CC1(O)CC[C@H]2[C@@H]3CCC4=CCCC[C@@H]4[C@H]3CC[C@@]21C (stereo partly specified) : call = ?
output: 1.0

Further cases:
input: Hi, do you know how S=C(NC1CCCCC1)NC1CCCCC1 came out in this test?
output: 0.0

input: Lab log entry: COc1ccc2nc(N)sc2c1 — outcome as called in the assay?
output: 0.0

input: State the result this test recorded for CC1OC1C1CCC2(C)OC2C1 (stereo unspecified) .
output: 0.0

input: Query: recorded result category for c1ccc(-c2ccccn2)nc1 in this test
output: 0.0

input: Please share the test call associated with O=c1c2ccccc2oc2ccccc12 .
output: 0.0

input: Could you please tell me the result logged for CC(C)C(=O)C(C)C in this assay?
output: 0.0

input: Field: outcome | Entry: CCOc1nc(F)cc2nc(S(=O)(=O)Nc3c(Cl)cccc3C(=O)OC)nn12
output: 0.0

input: Outcome? O=C1CCCN1CCO
output: 0.0
